assay: Solubility of candesartan cilexetil dispersions in 0.1N HCl; format: physicochemical; details: simulated gastric fluid
Observed property: solubility (µg/mL)
Hi! Could you send only the number? It should be in µg/mL, unit omitted.

[in] Endpoint output: solubility of CCOc1nc2cccc(C(=O)OC(C)OC(=O)OC3CCCCC3)c2n1Cc1ccc(-c2ccccc2-c2nnn[nH]2)cc1 (stereo not shown) [Candesartan cilexetil, candesartan cilexetil] . Value?
[out] 0.51
